test system: HEK293T (UBE3A T485A transfected, BAR Wnt reporter); assay: Wnt reporter firefly/Renilla luciferase ratio relative to plate median (fold (linear ratio)); higher = more Wnt/beta-catenin reporter activation; conditions: concentration: 0.1 uM; 24 h
In all, about 1,100 compounds were measured (“Wnt reporter firefly/Renilla luciferase ratio relative to plate median”: median about 1.1, highest 2% from about 1.6 on). Many of the other results were omitted from the sample, so the highest values are more common in it than they were.
recorded endpoint: Wnt reporter firefly/Renilla luciferase ratio

COS(C)(=O)=O [Methyl methanesulfonate]	0.999
CC(C)(OOC(C)(C)c1ccccc1)c1ccccc1 [Dicumyl peroxide]	1.15
CCNc1nc(Cl)nc(NC(C)C)n1	1.38
CCNc1nc(Cl)nc(NC(C)(C)C#N)n1	0.905
CCCCC(CC)COC(=O)c1ccccc1C(=O)OCC(CC)CCCC (configuration not stated) [Di(2-ethylhexyl) phthalate]	0.902
CN1COCN(Cc2cnc(Cl)s2)C1=N[N+](=O)[O-]	1.19
Cn1cc(-c2ccccc2)c(=O)c(-c2cccc(C(F)(F)F)c2)c1	1.28
